Reported relative viability by item:
Test system: NCI-H522
Protocol: relative viability (nuclei count vs DMSO), 5 days (fraction); higher = more cells survive
Test Parameters: first compound 0.08 µM

Compound | relative viability
C=C1C(=O)O[C@@H](CCCCCCCC)[C@@H]1C(=O)O [C-75] + O=C(CCCCCCC(=O)Nc1ccccc1)NO [Vorinostat] (partner 1 µM) | 0.912
C=C1C(=O)O[C@@H](CCCCCCCC)[C@@H]1C(=O)O [C-75] + CCNC(=O)c1noc(-c2cc(C(C)C)c(O)cc2O)c1-c1ccc(CN2CCOCC2)cc1 [Luminespib] (partner 0.01 µM) | 1.06
Oc1nc(-c2ccc(C(F)(F)F)cc2)nc2c1CSCC2 [XAV939] + O=C(c1cc(Cc2n[nH]c(=O)c3ccccc23)ccc1F)N1CCN(C(=O)C2CC2)CC1 [Olaparib] (partner 8 µM) | 0.887
Oc1nc(-c2ccc(C(F)(F)F)cc2)nc2c1CSCC2 [XAV939] + Cc1cc(Nc2cc(N3CCN(C)CC3)nc(Sc3ccc(NC(=O)C4CC4)cc3)n2)n[nH]1 [Tozasertib] (partner 0.1 µM) | 0.6
Oc1nc(-c2ccc(C(F)(F)F)cc2)nc2c1CSCC2 [XAV939] + N=C(N)NC(=N)NCCc1ccccc1 [Phenformin] (partner 250 µM) | 0.599
C=C1C(=O)O[C@@H](CCCCCCCC)[C@@H]1C(=O)O [C-75] + COc1cccc2cc(-c3nc([C@H]4CC[C@H](C(=O)O)CC4)n4ncnc(N)c34)[nH]c12 [OSI-027] (partner 0.5 µM) | 0.744
C=C1C(=O)O[C@@H](CCCCCCCC)[C@@H]1C(=O)O [C-75] + CC(=O)Nc1cccc(-n2c(=O)n(C3CC3)c(=O)c3c(Nc4ccc(I)cc4F)n(C)c(=O)c(C)c32)c1 [Trametinib] (partner 0.02 µM) | 0.784

###

System: NCI-H2085
Protocol: relative viability (nuclei count vs DMSO), 5 days (fraction); higher = more cells survive
Test Parameters: first compound 1.265 µM

Molecule | relative viability
O=C(O)c1ccc(-c2c[nH]c3ncc(-c4ccccc4)cc23)cc1C1CCCC1 + COc1cc2c(Oc3ccc(NC(=O)C4(C(=O)Nc5ccc(F)cc5)CC4)cc3F)ccnc2cc1OCCCN1CCOCC1 [Foretinib] (partner 0.25 µM) | 0.56
O=C(O)c1ccc(-c2c[nH]c3ncc(-c4ccccc4)cc23)cc1C1CCCC1 + CS(=O)(=O)N1CCN(Cc2cc3nc(-c4cccc5[nH]ncc45)nc(N4CCOCC4)c3s2)CC1 [Pictilisib] (partner 1 µM) | 0.568

###

System: A-427
Protocol: relative viability (nuclei count vs DMSO), 5 days (fraction); higher = more cells survive
Test Parameters: first compound 0.253 µM
Reported relative viability by item:
Quantity Measured: relative viability

Molecule | Assay Value
C=C1C(=O)O[C@@H](CCCCCCCC)[C@@H]1C(=O)O [C-75] + Cc1nc(Nc2ncc(C(=O)Nc3c(C)cccc3Cl)s2)cc(N2CCN(CCO)CC2)n1 [Dasatinib] (partner 0.075 µM) | 0.661
Oc1nc(-c2ccc(C(F)(F)F)cc2)nc2c1CSCC2 [XAV939] + Nc1ncn([C@H]2C[C@H](O)[C@@H](CO)O2)c(=O)n1 [Decitabine] (partner 2 µM) | 0.606
C=C1C(=O)O[C@@H](CCCCCCCC)[C@@H]1C(=O)O [C-75] + COc1cccc2cc(-c3nc([C@H]4CC[C@H](C(=O)O)CC4)n4ncnc(N)c34)[nH]c12 [OSI-027] (partner 0.5 µM) | 0.51
Oc1nc(-c2ccc(C(F)(F)F)cc2)nc2c1CSCC2 [XAV939] + CC(C)C[C@H](NC(=O)[C@H](Cc1ccccc1)NC(=O)c1cnccn1)B(O)O [Bortezomib] (partner 0.002 µM) | 0.977
C=C1C(=O)O[C@@H](CCCCCCCC)[C@@H]1C(=O)O [C-75] + O=C(c1cc(Cc2n[nH]c(=O)c3ccccc23)ccc1F)N1CCN(C(=O)C2CC2)CC1 [Olaparib] (partner 8 µM) | 0.69
Oc1nc(-c2ccc(C(F)(F)F)cc2)nc2c1CSCC2 [XAV939] + NC(=O)Nc1cc(-c2cccc(F)c2)sc1C(=O)N[C@H]1CCCNC1 [AZD7762] (partner 0.2 µM) | 0.684
Oc1nc(-c2ccc(C(F)(F)F)cc2)nc2c1CSCC2 [XAV939] + CS(=O)(=O)N1CCN(Cc2cc3nc(-c4cccc5[nH]ncc45)nc(N4CCOCC4)c3s2)CC1 [Pictilisib] (partner 1 µM) | 0.63

###

Test system: NCI-H727
Protocol: relative viability (nuclei count vs DMSO), 5 days (fraction); higher = more cells survive
Test Parameters: first compound 0.005 µM

Molecule | relative viability
CC1(C)CCC(c2ccc(Cl)cc2)=C(CN2CCN(c3ccc(C(=O)NS(=O)(=O)c4ccc(N[C@H](CCN5CCOCC5)CSc5ccccc5)c(S(=O)(=O)C(F)(F)F)c4)cc3)CC2)C1 [Navitoclax] + COc1cccc2cc(-c3nc([C@H]4CC[C@H](C(=O)O)CC4)n4ncnc(N)c34)[nH]c12 [OSI-027] (partner 0.5 µM) | 0.675
CC1(C)CCC(c2ccc(Cl)cc2)=C(CN2CCN(c3ccc(C(=O)NS(=O)(=O)c4ccc(N[C@H](CCN5CCOCC5)CSc5ccccc5)c(S(=O)(=O)C(F)(F)F)c4)cc3)CC2)C1 [Navitoclax] + NC(=O)Nc1cc(-c2cccc(F)c2)sc1C(=O)N[C@H]1CCCNC1 [AZD7762] (partner 0.2 µM) | 0.656
CC1(C)CCC(c2ccc(Cl)cc2)=C(CN2CCN(c3ccc(C(=O)NS(=O)(=O)c4ccc(N[C@H](CCN5CCOCC5)CSc5ccccc5)c(S(=O)(=O)C(F)(F)F)c4)cc3)CC2)C1 [Navitoclax] + Nc1ncn([C@H]2C[C@H](O)[C@@H](CO)O2)c(=O)n1 [Decitabine] (partner 2 µM) | 0.903
CC1(C)CCC(c2ccc(Cl)cc2)=C(CN2CCN(c3ccc(C(=O)NS(=O)(=O)c4ccc(N[C@H](CCN5CCOCC5)CSc5ccccc5)c(S(=O)(=O)C(F)(F)F)c4)cc3)CC2)C1 [Navitoclax] + Cc1cc(Nc2cc(N3CCN(C)CC3)nc(Sc3ccc(NC(=O)C4CC4)cc3)n2)n[nH]1 [Tozasertib] (partner 0.1 µM) | 0.621

###

Test system: NCI-H23
Protocol: relative viability (nuclei count vs DMSO), 5 days (fraction); higher = more cells survive
Test Parameters: first compound 8 µM
Quantity Measured: relative viability

Compound | Measured Target | Assay Value
C=C1C(=O)O[C@@H](CCCCCCCC)[C@@H]1C(=O)O [C-75] + CC1(C)CCC(c2ccc(Cl)cc2)=C(CN2CCN(c3ccc(C(=O)NS(=O)(=O)c4ccc(N[C@H](CCN5CCOCC5)CSc5ccccc5)c(S(=O)(=O)C(F)(F)F)c4)cc3)CC2)C1 [Navitoclax] (partner 0.5 µM) | NCI-H23 | 0.717
C=C1C(=O)O[C@@H](CCCCCCCC)[C@@H]1C(=O)O [C-75] + CS(=O)(=O)CCNCc1ccc(-c2ccc3ncnc(Nc4ccc(OCc5cccc(F)c5)c(Cl)c4)c3c2)o1 [Lapatinib] (partner 2 µM) | NCI-H23 | 0.546
C=C1C(=O)O[C@@H](CCCCCCCC)[C@@H]1C(=O)O [C-75] + CC(=O)Nc1cccc(-n2c(=O)n(C3CC3)c(=O)c3c(Nc4ccc(I)cc4F)n(C)c(=O)c(C)c32)c1 [Trametinib] (partner 0.02 µM) | NCI-H23 | 0.321
C=C1C(=O)O[C@@H](CCCCCCCC)[C@@H]1C(=O)O [C-75] + C[C@]1(O)C[C@@H](c2nc(-c3ccc4ccc(-c5ccccc5)nc4c3)c3c(N)nccn32)C1 [Linsitinib] (partner 1 µM) | NCI-H23 | 0.561
C=C1C(=O)O[C@@H](CCCCCCCC)[C@@H]1C(=O)O [C-75] + Cc1cc(Nc2cc(N3CCN(C)CC3)nc(Sc3ccc(NC(=O)C4CC4)cc3)n2)n[nH]1 [Tozasertib] (partner 0.1 µM) | NCI-H23 | 0.254

###

Tested on: LXF-289
Protocol: relative viability (nuclei count vs DMSO), 5 days (fraction); higher = more cells survive
Test Parameters: first compound 0.8 µM
Reported relative viability by item:

Molecule | relative viability
C=C1C(=O)O[C@@H](CCCCCCCC)[C@@H]1C(=O)O [C-75] + COc1cccc2cc(-c3nc([C@H]4CC[C@H](C(=O)O)CC4)n4ncnc(N)c34)[nH]c12 [OSI-027] (partner 0.5 µM) | 0.719
Oc1nc(-c2ccc(C(F)(F)F)cc2)nc2c1CSCC2 [XAV939] + CC1(C)CCC(c2ccc(Cl)cc2)=C(CN2CCN(c3ccc(C(=O)NS(=O)(=O)c4ccc(N[C@H](CCN5CCOCC5)CSc5ccccc5)c(S(=O)(=O)C(F)(F)F)c4)cc3)CC2)C1 [Navitoclax] (partner 0.5 µM) | 0.949
Oc1nc(-c2ccc(C(F)(F)F)cc2)nc2c1CSCC2 [XAV939] + Cc1cc(Nc2cc(N3CCN(C)CC3)nc(Sc3ccc(NC(=O)C4CC4)cc3)n2)n[nH]1 [Tozasertib] (partner 0.1 µM) | 0.161
Oc1nc(-c2ccc(C(F)(F)F)cc2)nc2c1CSCC2 [XAV939] + CC(=O)c1c(C)c2cnc(Nc3ccc(N4CCNCC4)cn3)nc2n(C2CCCC2)c1=O [Palbociclib] (partner 0.5 µM) | 0.588
Oc1nc(-c2ccc(C(F)(F)F)cc2)nc2c1CSCC2 [XAV939] + Cc1nc(NC(=O)N2CCC[C@H]2C(N)=O)sc1-c1ccnc(C(C)(C)C(F)(F)F)c1 [Alpelisib] (partner 2 µM) | 1.01
C=C1C(=O)O[C@@H](CCCCCCCC)[C@@H]1C(=O)O [C-75] + Nc1nc2[nH]cc(CCc3ccc(C(=O)N[C@@H](CCC(=O)O)C(=O)O)cc3)c2c(=O)[nH]1 [Pemetrexed] (partner 0.2 µM) | 0.858
Oc1nc(-c2ccc(C(F)(F)F)cc2)nc2c1CSCC2 [XAV939] + C[C@]1(O)C[C@@H](c2nc(-c3ccc4ccc(-c5ccccc5)nc4c3)c3c(N)nccn32)C1 [Linsitinib] (partner 1 µM) | 0.975
Oc1nc(-c2ccc(C(F)(F)F)cc2)nc2c1CSCC2 [XAV939] + CC(=O)Nc1cccc(-n2c(=O)n(C3CC3)c(=O)c3c(Nc4ccc(I)cc4F)n(C)c(=O)c(C)c32)c1 [Trametinib] (partner 0.02 µM) | 0.687
Oc1nc(-c2ccc(C(F)(F)F)cc2)nc2c1CSCC2 [XAV939] + CS(=O)(=O)N1CCN(Cc2cc3nc(-c4cccc5[nH]ncc45)nc(N4CCOCC4)c3s2)CC1 [Pictilisib] (partner 1 µM) | 0.764
C=C1C(=O)O[C@@H](CCCCCCCC)[C@@H]1C(=O)O [C-75] + Cc1nc(Nc2ncc(C(=O)Nc3c(C)cccc3Cl)s2)cc(N2CCN(CCO)CC2)n1 [Dasatinib] (partner 0.075 µM) | 0.26
C=C1C(=O)O[C@@H](CCCCCCCC)[C@@H]1C(=O)O [C-75] + C[C@@H](Oc1cc(-c2cnn(C3CCNCC3)c2)cnc1N)c1c(Cl)ccc(F)c1Cl [Crizotinib] (partner 1 µM) | 0.812

Origin of measurements: the supplement of paper PMC10307832
